The measurements presented in this section are drawn from patent USRE47150.

- Measured on: T1, mouse tissue factor pathway inhibitor (TFPI) (mouse, UniProt O54819 29-289, limits assumed)
- T1 construct: bought; also called mTFPI; murine TFPI
- T1 sequence (looked up): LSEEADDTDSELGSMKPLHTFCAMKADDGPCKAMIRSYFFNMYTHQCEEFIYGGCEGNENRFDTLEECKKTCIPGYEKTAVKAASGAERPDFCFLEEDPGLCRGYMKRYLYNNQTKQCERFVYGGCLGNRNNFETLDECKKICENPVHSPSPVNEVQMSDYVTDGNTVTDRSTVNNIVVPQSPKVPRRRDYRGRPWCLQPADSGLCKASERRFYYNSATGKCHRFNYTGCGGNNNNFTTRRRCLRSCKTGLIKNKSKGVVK
- Measurement description: competitive ELISA
Hi there, I'd appreciate the recorded variant/HC_D62R for every entry that follows.

May I ask what variant/HC_D62R has been recorded for 4B7 HC N32D+K55Y+D62Q+Y112D/LC F31I+D33F+N35I (Fab, V domains shown) VH: QVQLQQSGPGLVKPSQTLSLTCAISGDSVSSDSAAWSWIRQSPGRGLEWLGIIYYRSKWYNQYAVSVKSRITINPDTSKNQFSLQLNSVTPEDTAVYYCARWHSDKHWGFDDWGQGTLVTVSS VL: DIVMTQSPLSLPVTPGEPASISCRSSQSLVISFGITYLNWYLQKPGQSPQLLIYKGSNRASGVPDRFSGSGSGTDFTLKISRVEAEDVGVYYCQQYDSYPLTFGQGTKVEIKR ? 26.2 ratio

May I ask what variant/HC_D62R has been recorded for 4B7 HC N32D+D62Q+H107M+Y112D/LC S32R+N35T (Fab, V domains shown) VH: QVQLQQSGPGLVKPSQTLSLTCAISGDSVSSDSAAWSWIRQSPGRGLEWLGIIYKRSKWYNQYAVSVKSRITINPDTSKNQFSLQLNSVTPEDTAVYYCARWHSDKMWGFDDWGQGTLVTVSS VL: DIVMTQSPLSLPVTPGEPASISCRSSQSLVFRDGTTYLNWYLQKPGQSPQLLIYKGSNRASGVPDRFSGSGSGTDFTLKISRVEAEDVGVYYCQQYDSYPLTFGQGTKVEIKR ? 27.1 ratio
